From: patent US4965280A

Tested on: Venturia inaequalis
TEST NAME: Example A apple scab
Format: in vivo
DETAILS: 100 PPM, read-out: disease control rating, Ex. A
METRIC: pest or weed control at 100 ppm

[[record]]
molecule = "C=C(c1ccc(Cl)cc1)C(O)(Cn1cncn1)c1ccccc1Cl (centres unmarked)"
metric = "pest or weed control at 100 ppm"
result = "100%"

[[record]]
molecule = "C=C(c1ccc(Cl)cc1Cl)C(O)(Cn1cncn1)c1ccc(F)cc1 (centres unmarked)"
metric = "pest or weed control at 100 ppm"
result = "100%"

[[record]]
molecule = "C=C(c1ccc(F)cc1)C(O)(Cn1cncn1)c1ccc(F)cc1F (centres unmarked)"
metric = "pest or weed control at 100 ppm"
result = "100%"

[[record]]
molecule = "C=C(c1ccc(C)cc1)C(O)(Cn1cncn1)c1ccc(F)cc1 (centres unmarked)"
metric = "pest or weed control at 100 ppm"
result = "73%"

[[record]]
molecule = "C=C(c1ccccc1Cl)C(O)(Cn1cncn1)c1ccc(F)cc1F (centres unmarked)"
metric = "pest or weed control at 100 ppm"
result = "100%"

[[record]]
molecule = "C=C(c1ccccc1)C(O)(Cn1cncn1)c1ccc(Cl)cc1Cl (centres unmarked)"
metric = "pest or weed control at 100 ppm"
result = "100%"

[[record]]
molecule = "C=C(c1ccccc1F)C(O)(Cn1cncn1)c1ccc(F)cc1 (centres unmarked)"
metric = "pest or weed control at 100 ppm"
result = "0%"

[[record]]
molecule = "C=C(c1ccccc1Cl)C(O)(Cn1cncn1)c1ccc(Cl)cc1 (centres unmarked)"
metric = "pest or weed control at 100 ppm"
result = "69%"

[[record]]
molecule = "C=C(c1ccc(F)cc1)C(O)(Cn1ncnc1I)c1ccccc1F (centres unmarked)"
metric = "pest or weed control at 100 ppm"
result = "100%"

[[record]]
molecule = "C=C(c1ccccc1)[C@](O)(Cn1cncn1)c1ccc(F)cc1"
metric = "pest or weed control at 100 ppm"
result = "100%"

[[record]]
molecule = "C=C(c1cccc(Cl)c1)C(O)(Cn1cncn1)c1ccc(Cl)cc1Cl (centres unmarked)"
metric = "pest or weed control at 100 ppm"
result = "19%"

[[record]]
molecule = "C=C(c1ccc(Cl)cc1)C(O)(Cn1cncn1)c1ccccc1F (centres unmarked)"
metric = "pest or weed control at 100 ppm"
result = "100%"

[[record]]
molecule = "C=C(c1ccc(F)cc1)C(O)(Cn1cncn1)c1ccc(Cl)cc1Cl (centres unmarked)"
metric = "pest or weed control at 100 ppm"
result = "62%"

[[record]]
molecule = "C=C(c1ccccc1)C(O)(Cn1cncn1)c1ccc(Cl)s1 (centres unmarked)"
metric = "pest or weed control at 100 ppm"
result = "100%"

[[record]]
molecule = "C=C(c1ccc(F)cc1)C(O)(Cn1cncn1)c1ccccc1Cl (centres unmarked)"
metric = "pest or weed control at 100 ppm"
result = "100%"

[[record]]
molecule = "C=C(c1cccc(F)c1)C(O)(Cn1cncn1)c1ccc(F)cc1 (centres unmarked)"
metric = "pest or weed control at 100 ppm"
result = "100%"

[[record]]
molecule = "C=C(c1cc(Cl)cc(Cl)c1)C(O)(Cn1cncn1)c1ccc(F)cc1F (centres unmarked)"
metric = "pest or weed control at 100 ppm"
result = "40%"

[[record]]
molecule = "C=C(c1ccc(F)cc1)C(O)(Cn1cncn1)c1ccc(Cl)cc1 (centres unmarked)"
metric = "pest or weed control at 100 ppm"
result = "100%"

[[record]]
molecule = "C=C(c1ccc(F)cc1)C(O)(Cn1cncn1)c1ccccc1F (centres unmarked)"
metric = "pest or weed control at 100 ppm"
result = "100%"

[[record]]
molecule = "C=C(c1ccccc1)C(O)(Cn1ncnc1S)c1ccc(F)cc1 (centres unmarked)"
metric = "pest or weed control at 100 ppm"
result = "100%"

